Origin of the recorded values: patent US4499084A

# Experimental Details: solubility
# Format: physicochemical
# Experimental Conditions: organic solvent or mixture; DMSO solvent system; read-out: concentration achieved using DMSO as the solvent system
Test Readout: solubility

Tell me the measured solubility of Nc1ncnc2c1ncn2[C@@H]1O[C@H](CO)[C@@H](O)[C@@H]1O [ara-A, adenine-9-beta-D-arabinofuranoside] , please.
≥ 10000 µg/mL
